Known Activity of a selection of molecules
biological target: UniProt Q92731; experiment: Binding affinity to human ERbeta receptor relative to estrogen
Sequence (Q92731 whole entry): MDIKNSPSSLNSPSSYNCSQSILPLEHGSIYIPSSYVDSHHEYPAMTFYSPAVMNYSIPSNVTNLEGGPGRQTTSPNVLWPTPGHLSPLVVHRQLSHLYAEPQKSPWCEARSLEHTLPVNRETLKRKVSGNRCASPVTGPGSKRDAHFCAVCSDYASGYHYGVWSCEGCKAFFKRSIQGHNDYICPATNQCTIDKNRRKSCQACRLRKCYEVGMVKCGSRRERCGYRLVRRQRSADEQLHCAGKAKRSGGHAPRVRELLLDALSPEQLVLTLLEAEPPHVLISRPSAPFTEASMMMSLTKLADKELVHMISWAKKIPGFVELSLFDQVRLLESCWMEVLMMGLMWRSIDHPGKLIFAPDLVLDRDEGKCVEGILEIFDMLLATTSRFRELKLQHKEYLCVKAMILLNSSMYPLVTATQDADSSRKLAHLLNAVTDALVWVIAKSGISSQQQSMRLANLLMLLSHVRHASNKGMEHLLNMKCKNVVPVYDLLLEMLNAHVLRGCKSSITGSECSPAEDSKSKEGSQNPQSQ
Value expressed in %; do not type the unit.

Completed entries (count: 3):
- Cc1c(-c2ccc(O)cc2)nn(-c2ccc(O)cc2)c1-c1ccc(/C=C/C(=O)N2CCCCC2)cc1: 0.015
- Cc1c(-c2ccc(O)cc2)nn(-c2ccc(O)cc2)c1-c1ccc(OCCN2CCCCC2)cc1: 0.05
- Cc1c(-c2ccc(O)cc2)nn(-c2ccc(O)cc2)c1-c1ccc(O)cc1: 0.039

// moving on: another record for Activity
Q: I'd like to know its Activity. The molecule in question is Cc1c(-c2ccc(O)cc2)nn(-c2ccc(O)cc2)c1-c1ccc(CCCN2CCCCC2)cc1
Result: 0.016

These data points were gathered from ChEMBL document CHEMBL1139264.
